Could you please report measured TGI for the items listed next?
- System: OVCAR-4 ovarian
- experiment: NCI tumour cell line growth inhibition, 48 h

>  <compound>
CO/N=C\c1ccc2c(c1)Sc1ccccc1O2

>  <TGI>
> 100 µM

$$$$
>  <compound>
NC(=O)CSc1c2cc(O)ccc2nc2ccc(O)cc12

>  <TGI>
> 10 µM

$$$$
>  <compound>
CC(=O)NC1(NC(C)=O)C2CC(C1Cc1ccccc1)C(C)(C)C2C (centres undefined)

>  <TGI>
> 100 µM

$$$$

Q. Quick one: TGI for CCOC(=O)c1cn2c(n1)sc1cc(OC)ccc12 ?
A. > 100 µM

----------
- Test system: SK-MEL-28 melanoma
- experiment: NCI tumour cell line growth inhibition, 48 h
Could you please report measured TGI for the items listed next?

Use these answered entries as a reference point.
>  <compound>
CC1CN=C(Nc2cccc(F)c2)S1 (stereo not drawn)

>  <target-or-test-system>
SK-MEL-28 melanoma

>  <TGI>
> 100 µM

$$$$
>  <compound>
CCOc1cccc2c1N[S@@](=O)S2

>  <target-or-test-system>
SK-MEL-28 melanoma

>  <TGI>
> 100 µM

$$$$

Now look at this entry.
Q. So what TGI did O=c1nc2ccc([N+](=O)[O-])cc2[n+]([O-])[nH]1 get with SK-MEL-28 melanoma?
A. > 100 µM

----------
Could you please report measured TGI for the items listed next?
- Test system: LOX IMVI melanoma
- experiment: NCI tumour cell line growth inhibition, 48 h

Use these answered entries as a reference point.
>  <molecule>
CCOc1ccc(N=C2NC(=O)C(CC(=O)Nc3ccccc3[N+](=O)[O-])S2)cc1 (configuration not stated)

>  <target-or-test-system>
LOX IMVI melanoma

>  <recorded-measurement>
> 100 µM

$$$$
>  <molecule>
CC(C)(C)C(=O)Oc1ccc(/C=C/C(=O)c2ccc(OC(=O)C(C)(C)C)cc2)cc1

>  <target-or-test-system>
LOX IMVI melanoma

>  <recorded-measurement>
> 100 µM

$$$$
>  <molecule>
COC(=O)C(C(=O)C(=O)Nc1ccc(C)cc1C)c1csc(-n2nc(-c3ccccc3)cc2-c2ccccc2)n1 (configuration not stated)

>  <target-or-test-system>
LOX IMVI melanoma

>  <recorded-measurement>
> 100 µM

$$$$
>  <molecule>
Cc1ccc2nc3n[nH]c(N)c3nc2c1

>  <target-or-test-system>
LOX IMVI melanoma

>  <recorded-measurement>
> 100 µM

$$$$
>  <molecule>
COc1ccc(/C=C2\C[C@H]3[C@@H]4CCC5=C/C(=N/O)CC[C@]5(C)[C@H]4CC[C@]3(C)\C2=N\O)cc1

>  <target-or-test-system>
LOX IMVI melanoma

>  <recorded-measurement>
> 100 µM

$$$$
>  <molecule>
COc1cc(/C=C2\C[C@H]3[C@@H]4CCC5=CC(=O)CC[C@]5(C)[C@H]4CC[C@]3(C)C2=O)cc(OC)c1OC

>  <target-or-test-system>
LOX IMVI melanoma

>  <recorded-measurement>
> 100 µM

$$$$
>  <molecule>
Nc1c(C(=O)c2cccc(C#CCN3CCCCC3)c2)cnn1-c1ccc(F)cc1

>  <target-or-test-system>
LOX IMVI melanoma

>  <recorded-measurement>
> 25 µM

$$$$
>  <molecule>
COc1ccc2oc(S(=O)(=O)N3CC(CCl)c4ccc(N)cc43)cc2c1 (configuration not stated)

>  <target-or-test-system>
LOX IMVI melanoma

>  <recorded-measurement>
> 53.1 µM

$$$$
>  <molecule>
COc1cccc(CNc2ncnc3c2ncn3C2OC(CO)C(O)C2O)c1O (configuration not stated)

>  <target-or-test-system>
LOX IMVI melanoma

>  <recorded-measurement>
> 100 µM

$$$$
>  <molecule>
O=C(N/N=C\c1cccc2ccccc12)Nc1ccccc1

>  <target-or-test-system>
LOX IMVI melanoma

>  <recorded-measurement>
> 100 µM

$$$$

Field: TGI. Fill in for each record below.
1. COc1ccc(-c2nc(-c3nc4cc(Cl)c(F)cc4[nH]3)c3ccccn23)cc1
2. CCOC(=O)C1Cc2ccc3c4c(ccc(c24)C1)CC(C(=O)OCC)C3

A.
> 100 µM
> 100 µM

----------
- Tested on: UO-31 renal
- experiment: NCI tumour cell line growth inhibition, 48 h
measurement-kind: TGI

Field: TGI. Fill in for each record below.
1. CC1(C)COC2C(N(Cc3ccccc3)Cc3ccccc3)C(=O)N21 (centres undefined)
2. Nc1[nH]c(=O)nc2snnc12
3. COc1ccc(-c2c(C#N)c(N)nc(N3CCOCC3)c2C#N)cc1
4. C/C(=C(/c1ccccc1)c1ccc(OCC(O)CNCCN2CCOCC2)cc1)c1ccccc1 (centres undefined)
5. C[C@H]1C2Cc3cc(O)ccc3[C@@]1(C)CCN2CCc1ccc(N)cc1
6. COc1ccc(C(=O)c2sc3nc(-c4ccccc4OC)ccc3c2N)cc1OC
7. FC(F)(F)c1ccc(-c2nn3ncccc3c2-c2ccnc(Nc3ccc4c(c3)OCCO4)n2)cc1

A.
1. > 100 µM
2. > 31.2 µM
3. 49.2 µM
4. 2.77 µM
5. > 100 µM
6. > 100 µM
7. > 21.9 µM

Field: TGI. Fill in for each record below.
1. CCCN(CCC)c1ccc(C=O)c(Cl)c1
2. O=C(Nc1cccc2[nH]c(C(F)(F)F)nc12)c1cc(Cl)ccc1Cl
3. O=C(Cn1cc(Br)c(=O)[nH]c1=O)c1ccc(-c2ccccc2)cc1
4. O=C1C(CO)=C[C@H](O)[C@H]2O[C@@H]12
5. O=C1CCCC/C1=C\c1ccc([N+](=O)[O-])cc1
6. CSc1ncnc2c1ncn2CC(=O)C1CCC2C3CCC4=CC(=O)CCC4(C)C3CCC12C (centres undefined)
7. O=C1/C(=C\c2ccco2)Oc2ccccc21

A.
["> 83.8 µM", "11.3 µM", "> 100 µM", "507 µM", "36.3 µM", "2.52 µM", "> 100 µM"]

Field: TGI. Fill in for each record below.
1. CC(=O)c1cccc(NC(=O)C(=O)c2c(O)c3ccccc3oc2=O)c1
2. CC(O)c1cc2c(s1)C(=O)c1c(C(C)O)csc1C2=O (centres undefined)
3. CC1=Nc2ccccc2SC(c2c(Cl)cccc2Cl)C1 (centres undefined)
4. COc1ccc2c(O)c(S(=O)(=O)c3ccc(C)cc3)c(=O)oc2c1OC

A.
> 100 µM
0.776 µM
3.09 µM
> 100 µM

Q. Quick one: TGI for COC(=O)C(C(=O)C(=O)Nc1ccc(C)cc1C)c1csc(-n2nc(-c3ccccc3)cc2-c2ccccc2)n1 (centres undefined) ?
A. > 100 µM

----------
- Test system: HT29 colon
- experiment: NCI tumour cell line growth inhibition, 48 h
measurement-kind: TGI

>  <substance-smiles>
COc1ccc(/C=C2/C(=O)N(C(=O)c3ccccc3O)N=C2C)cc1

>  <measurement-kind>
TGI

>  <recorded-measurement>
> 100 µM

$$$$
>  <substance-smiles>
Nc1[nH]c(=O)nc2snnc12

>  <measurement-kind>
TGI

>  <recorded-measurement>
> 100 µM

$$$$

Now look at this entry.
Q. Quick one: TGI for COc1ccc(O)c(C(=O)CCC(=O)O)c1 ?
A. > 100 µM

----------
- Test system: HOP-92 NSCLC
- experiment: NCI tumour cell line growth inhibition, 48 h
measurement-kind: TGI

Use these answered entries as a reference point.
>  <compound>
O=C(NN1C(=O)C(Cl)C1c1cccc([N+](=O)[O-])c1)c1ccccc1O (centres undefined)

>  <TGI>
> 100 µM

$$$$
>  <compound>
COc1ccccc1-c1cc(=O)c2cc(C)c(C)c(C(=O)O)c2o1

>  <TGI>
> 100 µM

$$$$
>  <compound>
O=c1c2c(-c3ccccc3)c3ccccc3nc2cnn1-c1ccccc1

>  <TGI>
> 100 µM

$$$$

Field: TGI. Fill in for each record below.
1. COc1ccc(/C=C(\NC(=O)c2ccccc2)c2nc3ccccc3[nH]2)cc1OC
2. CO/N=C\c1ccc2c(c1)Sc1ccccc1O2
3. Cc1ccc(O)c(C2=CC3=NNC(=O)C3C(c3cccc(Cl)c3)C2)c1 (centres undefined)
4. COc1ccc2oc(S(=O)(=O)N3CC(CCl)c4ccc(N)cc43)cc2c1 (centres undefined)
5. COc1cc(-c2ccc(N=Nc3ccc4c(S(=O)(=O)O)cc(S(=O)(=O)O)c(N)c4c3O)c(OC)c2)ccc1N=Nc1ccc2c(S(=O)(=O)O)cc(S(=O)(=O)O)c(N)c2c1O
6. Cc1nc2ccc(S(=O)(=O)NS(=O)(=O)c3ccc(-c4ccccc4)cc3)cc2c(=O)n1NS(=O)(=O)c1ccc(-c2ccccc2)cc1
7. FC(F)(F)c1ccc(-c2nn3ncccc3c2-c2ccnc(Nc3ccc4c(c3)OCCO4)n2)cc1

A.
1: > 100 µM; 2: > 100 µM; 3: 96.1 µM; 4: > 64.7 µM; 5: > 100 µM; 6: > 100 µM; 7: 21.9 µM

Field: TGI. Fill in for each record below.
1. Clc1ccc2c(NCCCCN3OC3c3ccccc3)ccnc2c1 (centres undefined)
2. O=C(Nc1cccc2[nH]c(C(F)(F)F)nc12)c1cc(Cl)ccc1Cl
3. Clc1ccc(/C=C/c2ccc3ccccc3n2)cc1
4. CCOC(=O)c1sc2c(c1OC(=O)c1cc(OC)c(OC)c(OC)c1)c(=O)n(-c1ccccc1)c(=S)n2-c1ccccc1

A.
1. 25.8 µM
2. 6.72 µM
3. > 29.9 µM
4. 95.3 µM
